Target: Biotin QP004.3 (biotin-PDL1-FC) (human) (UniProt Q9NZQ7)
Sequence (Q9NZQ7 19-238 limits assumed): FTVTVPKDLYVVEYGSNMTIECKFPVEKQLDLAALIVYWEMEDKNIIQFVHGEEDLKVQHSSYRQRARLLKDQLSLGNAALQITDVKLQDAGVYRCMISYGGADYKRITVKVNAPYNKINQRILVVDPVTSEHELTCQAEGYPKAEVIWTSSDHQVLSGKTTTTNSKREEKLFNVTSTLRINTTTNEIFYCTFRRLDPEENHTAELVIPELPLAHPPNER
Assay: blocking ELISA, PD1-FC coated, biotin-PDL1-FC plus antibody; competitor PD1-FC
Reported ELISA reading at 1.2346 nM antibody values for the following binders.
READOUT_TYPE: ELISA reading at 1.2346 nM antibody

1. QP320 (Fc fusion, not shown: a dimerising Fc or GST) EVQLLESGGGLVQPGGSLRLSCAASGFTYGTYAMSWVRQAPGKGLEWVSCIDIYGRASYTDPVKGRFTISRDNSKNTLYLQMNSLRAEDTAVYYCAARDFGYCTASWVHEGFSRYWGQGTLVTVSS	1.08
2. QP1166 (Fc fusion, not shown: a dimerising Fc or GST) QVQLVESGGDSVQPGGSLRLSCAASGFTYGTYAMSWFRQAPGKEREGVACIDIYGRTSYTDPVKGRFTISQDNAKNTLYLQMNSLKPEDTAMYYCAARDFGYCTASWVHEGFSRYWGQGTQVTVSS	1.13
3. QP324 (Fc fusion, not shown: a dimerising Fc or GST) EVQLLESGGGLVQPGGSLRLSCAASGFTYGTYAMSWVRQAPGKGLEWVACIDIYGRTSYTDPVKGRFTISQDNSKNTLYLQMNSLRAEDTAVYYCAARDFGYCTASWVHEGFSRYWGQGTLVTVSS	0.879
4. QP325 (Fc fusion, not shown: a dimerising Fc or GST) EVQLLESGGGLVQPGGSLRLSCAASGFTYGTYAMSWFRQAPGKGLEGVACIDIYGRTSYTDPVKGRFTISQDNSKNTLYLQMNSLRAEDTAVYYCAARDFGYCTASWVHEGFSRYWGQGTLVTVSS	0.995
